# RUN_DESCRIPTION: Cytotoxicity colorimetric (tetrazolium) assay
# Type: cell-based, human
# CONDITION_DETAILS: human; HepG2 cells; one hour with compound in serum-free media
RESULT_TYPE: EC50 at 1 h (µg/mL)

>>> experimental_result("NCCc1cc(CCN)cc(-c2cc(F)cc(-c3cc(F)cc(-c4cc(CCN)cc(CCN)c4)c3)c2)c1 [Compound 150]")
486

---

# RUN_DESCRIPTION: Cytotoxicity colorimetric (tetrazolium) assay
# Type: cell-based, mouse
# CONDITION_DETAILS: mouse, NIH/3T3 cells (CRL-1658), NIH/3T3 cells; one hour with compound in serum-free media
Here, each record is paired with measured log10(EC50 at 1 h) data.
RESULT_TYPE: log10(EC50 at 1 h) (log10 of the value in mg/L)

>>> experimental_result("N=C(N)NCCc1ccc(C#Cc2cccc(C#Cc3ccc(CCNC(=N)N)c(CCNC(=N)N)c3)c2)cc1CCNC(=N)N [Compound 195]")
1.98
>>> experimental_result("NCCc1cc(CCN)cc(-c2cccc(-c3cc(CCN)cc(CCN)c3)c2)c1 [Compound 115]")
3.05
>>> experimental_result("NCCCOc1cc(OCCCN)cc(-c2ccc3c(c2)C(=O)c2cc(-c4cc(OCCCN)cc(OCCCN)c4)ccc2CC3)c1 [Compound 156]")
1.69
>>> experimental_result("NCCCOc1cc(OCCCN)cc(-c2ccc3c(c2)C(=O)c2cccc(-c4cc(OCCCN)cc(OCCCN)c4)c2CC3)c1 [Compound 155]")
2.25
>>> experimental_result("NCCCN1c2ccccc2Sc2ccc(C(F)(F)F)cc21 [Compound 101]")
0.95
>>> experimental_result("N=C(N)NCCCc1cccc(-c2ccc3c4ccc(-c5cccc(CCCNC(=N)N)c5)cc4n(CCCNC(=N)N)c3c2)c1 [Compound 158]")
2.12
>>> experimental_result("N=C(N)NCCc1cccc(-c2coc(-c3cccc(-c4nc(-c5cccc(CCNC(=N)N)c5)co4)c3)n2)c1 [Compound 134]")
1.52
>>> experimental_result("NCCc1ccc(C#Cc2cccc(C#Cc3ccc(CCN)c(CCN)c3)c2)cc1CCN [Compound 194]")
2.19
>>> experimental_result("NCCc1cc(C#Cc2cc(C#Cc3cc(CCN)cc(CCN)c3)c(F)cc2F)cc(CCN)c1 [Compound 192]")
2.73
>>> experimental_result("NCC#Cc1cc(C#CCN)cc(-c2cccc(-c3cc(C#CCN)cc(C#CCN)c3)c2)c1 [Compound 124]")
2.28
>>> experimental_result("N=C(N)NCCc1cc(CCNC(=N)N)cc(-c2csc(-c3cccc(-c4nc(-c5cc(CCNC(=N)N)cc(CCNC(=N)N)c5)cs4)c3)n2)c1 [Compound 137]")
1.42
>>> experimental_result("N=C(N)NCC(CNC(=N)N)c1cc(Br)cc(C#Cc2cccc(C#Cc3cc(Br)cc(C(CNC(=N)N)CNC(=N)N)c3)c2)c1 (centres unmarked) [Compound 191]")
1.24
>>> experimental_result("NCCc1cccc(-c2coc(-c3cccc(-c4nc(-c5cccc(CCN)c5)co4)c3)n2)c1 [Compound 132]")
1.37
>>> experimental_result("N=C(N)NCCc1cc(C#Cc2cccc(C#Cc3cc(CCNC(=N)N)cc(CCNC(=N)N)c3)c2)cc(CCNC(=N)N)c1 [Compound 189]")
2.12
>>> experimental_result("N=C(N)NCCCOc1cc(OCCCNC(=N)N)cc(-c2ccc3sc4ccc(-c5cc(OCCCNC(=N)N)cc(OCCCNC(=N)N)c5)cc4c3c2)c1 [Compound 172]")
1.62
>>> experimental_result("N=C(N)NCCc1cc(CCNC(=N)N)cc(-c2cccc(-c3cc(CCNC(=N)N)cc(CCNC(=N)N)c3)c2)c1 [Compound 116]")
2.83
>>> experimental_result("NCCCn1c2cc(Br)ccc2c2ccc(Br)cc21 [Compound 106]")
2.03
>>> experimental_result("NCCCn1c2cc(-c3cccc(N(CCN)CCN)c3)ccc2c2ccc(-c3cccc(N(CCN)CCN)c3)cc21 [Compound 160]")
2.65
>>> experimental_result("N=C(N)NCCC#Cc1cc(-c2cc(OCCCNC(=N)N)cc(-c3cc(C#CCCNC(=N)N)cc(C(F)(F)F)c3)c2)cc(C(F)(F)F)c1 [Compound 121]")
1.57
>>> experimental_result("NCCc1cc(CCN)cc(-c2csc(-c3cccc(-c4nccs4)c3)n2)c1 [Compound 136]")
2.40
>>> experimental_result("N=C(N)NCCc1cccc(-c2cc(-c3cccc(-c4cc(-c5cccc(CCNC(=N)N)c5)on4)c3)no2)c1 [Compound 129]")
1.55
>>> experimental_result("O=C(c1cc(C(=O)N2CCNCC2)cc(-c2ccc3sc4ccc(-c5cc(C(=O)N6CCNCC6)cc(C(=O)N6CCNCC6)c5)cc4c3c2)c1)N1CCNCC1 [Compound 170]")
2.64
>>> experimental_result("N=C(N)NCCCOc1cc(OCCCNC(=N)N)c(-c2cc(F)c(F)c(F)c2)cc1-c1cc(F)c(F)c(F)c1 [Compound 120]")
2.00
>>> experimental_result("O=C(Nc1ccc(-c2ccc(N3CCNCC3)nc2)cc1F)Nc1ccc(-c2ccc(N3CCNCC3)nc2)cc1F [Compound 141]")
2.61
>>> experimental_result("NCCCn1c2cc(-c3cccc(N)c3)ccc2c2ccc(-c3cccc(N)c3)cc21 [Compound 159]")
1.66
>>> experimental_result("NCCc1cccc(-c2cc(-c3cccc(-c4cc(-c5cccc(CCN)c5)on4)c3)no2)c1 [Compound 128]")
1.35
>>> experimental_result("NCCc1cc(C#Cc2ccc(C#Cc3cc(CCN)cc(CCN)c3)cc2)cc(CCN)c1 [Compound 198]")
2.45
>>> experimental_result("NCCCOc1cc(OCCCN)cc(-c2ccc3sc4ccc(-c5cc(OCCCN)c(OCCCN)c(OCCCN)c5)cc4c3c2)c1 [Compound 182]")
1.89
>>> experimental_result("NCCc1cccc(-c2coc(-c3cccc(-c4ncco4)c3)n2)c1 [Compound 133]")
1.85

Numbers sourced from patent US20140308317A1.
